biological target: Histone deacetylase (Homo sapiens) (UniProt Q13547+O15379+Q9UBN7+Q92769+Q9UQL6+Q8WUI4+Q9BY41+Q96DB2+P56524+Q9UKV0+Q969S8); assay: Inhibition of HDAC in human HeLa cells at 50 uM by fluorescent activity assay; type: cell-based
readoutName: inhibition (%)

(A) O=C(CCCC1CCN(C(=O)Cc2ccccc2)CC1)NO
(B) O=C(CN1CCN(S(=O)(=O)Cc2ccccc2)CC1)NO
(C) O=C(NO)C1CCN(S(=O)(=O)Cc2ccccc2)CC1
// query List by increasing inhibition. Returns: the labels listed in the requested order.
// result C, B, A

----------
target: Histone deacetylase (Homo sapiens) (UniProt Q13547+O15379+Q9UBN7+Q92769+Q9UQL6+Q8WUI4+Q9BY41+Q96DB2+P56524+Q9UKV0+Q969S8); settings: HeLa, at 0.1 µM
Description: Inhibition of HDAC in human HeLa cells at 0.1 uM by fluorescent activity assay
readoutName: inhibition (%)

{"smilesNotation": "O=C(CCC1CCN(S(=O)(=O)c2ccccc2)CC1)NO", "unitTag": "%", "inhibition": 9}
{"smilesNotation": "O=C(CCCCN1CCN(S(=O)(=O)c2ccccc2)CC1)NO", "unitTag": "%", "inhibition": 9}
{"smilesNotation": "O=C(CCCCN1CCN(C(=O)Cc2ccccc2)CC1)NO", "unitTag": "%", "inhibition": 19}

(1) O=C(CCCCC1CCN(C(=O)Cc2ccccc2)CC1)NO
(2) O=C(CCCCC1CCN(C(=O)NCc2ccccc2)CC1)NO
(3) O=C(CCCCN1CCN(C(=O)c2ccccc2)CC1)NO
(4) O=C(CCC1CCN(C(=O)Cc2ccccc2)CC1)NO
// query List these items ordered by inhibition, big to small. Returns: the labels listed in the requested order.
// result 2, 1, 3, 4

(A) O=C(CCC1CCN(S(=O)(=O)Cc2ccccc2)CC1)NO
(B) O=C(CCCCCC1CCN(C(=O)NCc2ccccc2)CC1)NO
// query Two entries are listed, A and B . Which one carries the higher inhibition? # reply format: chosen label
// result B
(B: 20%, A: 8%)

----------
biological target: Histone deacetylase (Homo sapiens) (UniProt Q13547+O15379+Q9UBN7+Q92769+Q9UQL6+Q8WUI4+Q9BY41+Q96DB2+P56524+Q9UKV0+Q969S8); conditions: HeLa, at 10 µM
Description: Inhibition of HDAC in human HeLa cells at 10 uM by fluorescent activity assay
readoutName: inhibition (%)

{"smilesNotation": "O=C(CCN1CCN(S(=O)(=O)Cc2ccccc2)CC1)NO", "unitTag": "%", "inhibition": 1}
{"smilesNotation": "O=C(NO)C1CCN(C(=O)Cc2ccccc2)CC1", "unitTag": "%", "inhibition": 33}

(P) O=C(CC1CCN(C(=O)Cc2ccccc2)CC1)NO
(Q) O=C(CCCN1CCN(C(=O)c2ccccc2)CC1)NO
(R) O=C(NO)C1CCN(C(=O)c2ccccc2)CC1
(S) O=C(NO)C1CCN(S(=O)(=O)Cc2ccccc2)CC1
(T) O=C(CN1CCN(S(=O)(=O)c2ccccc2)CC1)NO
// query List these items ordered by inhibition, big to small. Returns: the labels listed in the requested order.
// result P, Q, T, S, R
(P: 39%, Q: 13%, T: 3%, S: 1%, R: 0%)

----------
biological target: Histone deacetylase (Homo sapiens) (UniProt Q13547+O15379+Q9UBN7+Q92769+Q9UQL6+Q8WUI4+Q9BY41+Q96DB2+P56524+Q9UKV0+Q969S8); test: Inhibition of HDAC in human HeLa cells at 50 uM by fluorescent activity assay; assay type: cell-based
readoutName: inhibition (%)

{"smilesNotation": "O=C(CCN1CCN(C(=O)Cc2ccccc2)CC1)NO", "inhibition (%)": 2}

(I) O=C(CC1CCN(C(=O)Cc2ccccc2)CC1)NO
(II) O=C(CCN1CCN(S(=O)(=O)Cc2ccccc2)CC1)NO
// query Please compare: I and II . Report which one has the smaller inhibition value. # reply format: chosen label
// result II
